ASSAY_TEXT: Stability of DNPs by DLS after storage at 5° C.
Type: physicochemical
TEST_SETTINGS: after 62 days at 5° C.; IAJD 4.0 mg/mL + Luc-mRNA 0.1 mg/mL, acetate buffer
Assign labels as follows, please: True for Size (d, nm) below 200 nm; False for Size (d, nm) equal to or exceeding 200 nm.

State whether 200 nm exceeds Size (d, nm) recorded for CCCCCCCCCCCCOc1cc(COC(=O)CCCN2CCN(CCO)CC2)cc(OCCCCCCCCCCC)c1 [IAJD 124] . False

What do we get for CCCCCCCCCCCCCCCCCOc1cc(COC(=O)CCCN2CCN(CCO)CC2)cc(OCCCCCCCCCCC)c1 [IAJD 127] ? False

What do we get for CCCCCCCCCCCCCOc1cc(COC(=O)CCCN2CCN(C)CC2)cc(OCCCCCCCCCCC)c1 [IAJD 116] ? True

What do we get for CCCCCCCCCCCCCCCOc1cc(COC(=O)CCCN2CCN(CCO)CC2)cc(OCCCCCCCCCCC)c1 [IAJD 119] ? False

What do we get for CCCCCCCCCCCOc1cc(COC(=O)CCCN2CCN(CCO)CC2)cc(OCCCCCCCCC)c1 [IAJD 122] ? True

What do we get for CCCCCCCCCCCOc1cc(COC(=O)CCCN2CCN(CCO)CC2)cc(OCC(CC)CCCC)c1 (stereo not shown) [IAJD 130] ? True

What do we get for CCCCCCCCCCCCCCOc1cc(COC(=O)CCCN2CCN(CCO)CC2)cc(OCCCCCCCCCCC)c1 [IAJD 125] ? False

----------
ASSAY_TEXT: DLS size of dendrimersomes assembled from glycerol-JDs in water at different concentrations
Type: physicochemical
TEST_SETTINGS: JD 0.1 mg·mL−1 in water
Field: PDI. Provide a value for each of the molecules that follow.
Form rule: numeric answer, no unit written next to it.

Requested field: PDI. Item: CCCCCCCCCCCCOc1cc(OCCCCCCCCCCCC)cc(C(=O)OCC(COC(=O)C(C)(COC(=O)c2cc(OCCOCCOCCOC)c(OCCOCCOCCOC)c(OCCOCCOCCOC)c2)COC(=O)c2cc(OCCOCCOCCOC)c(OCCOCCOCCOC)c(OCCOCCOCCOC)c2)OC(=O)c2cc(OCCCCCCCCCCCC)cc(OCCCCCCCCCCCC)c2)c1 (racemic) [Compound 1rac, (3,5)-12G1-GC-(rac)-BMPA-(3,4,5)-3EO-G1] 0.268

What do we get for CCCCCCCCCCCCOc1cc(OCCCCCCCCCCCC)cc(C(=O)OC[C@@H](COC(=O)C(C)(COC(=O)c2cc(OCCOCCOCCOC)c(OCCOCCOCCOC)c(OCCOCCOCCOC)c2)COC(=O)c2cc(OCCOCCOCCOC)c(OCCOCCOCCOC)c(OCCOCCOCCOC)c2)OC(=O)c2cc(OCCCCCCCCCCCC)cc(OCCCCCCCCCCCC)c2)c1 [Compound 1S, (3,5)-12G1-GC-(S)-BMPA-(3,4,5)-3EO-G1] ? 0.223

----------
ASSAY_TEXT: Dimensions (size, PDI) of DNPs co-assembled from IAJDs and Luc-mRNA by DLS
Assay type: physicochemical
TEST_SETTINGS: Table 17; DNPs used in vivo, IAJD 4 mg/mL, Luc-mRNA 0.10 mg/mL, acetate pH 4.0
Field: Size (d, nm). Provide a value for each of the compounds that follow.
Your answer is read as nm, so omit the unit and give the number.

Requested field: Size (d, nm). Item: CCCCCCCCCCCCCCOc1cc(COC(=O)CCCN2CCN(CCO)CC2)cc(OCCCCCCCCCCC)c1 255

What do we get for CCCCCCCCCCCCCCCCCCOc1cc(COC(=O)CCCN2CCN(C)CC2)cc(OCCCCCCCCCCCCC)c1 ? 159

What do we get for CCCCCCCCCCCCCCOc1cc(COC(=O)CCCN2CCN(C)CC2)cc(OCCCCCCCCCCCCC)c1 ? 174

What do we get for CCCCCCCCCCCCCCCCOc1cc(COC(=O)CCCN2CCN(C)CC2)cc(OCCCCCCCCCCC)c1 ? 91

What do we get for CCCCCCCCCCCCCCCCCOc1cc(COC(=O)CCCN2CCN(C)CC2)cc(OCCCCCCCCCCCCCCC)c1 ? 287

What do we get for CCCCCCCCCCCCCCCCCCOc1cc(COC(=O)CCCN2CCN(C)CC2)cc(OCCCCCCCCCCCCCCC)c1 ? 232

What do we get for CCCCCCCCCCCCOc1cc(COC(=O)c2cc(OCCOCCOCCCC(=O)CCCN3CCCCC3)c(OCCOCCOCCOCc3ccccc3)c(OCCOCCOCCOC(=O)CCCN3CCCCC3)c2)cc(OCCCCCCCCCCCC)c1 ? 111

What do we get for CCCCCCCCCCCCCCCCOc1cc(COC(=O)CCCN2CCN(C)CC2)cc(OCCCCCCCCCCCC)c1 ? 105

What do we get for CCCCCCCCCCCCCCCCCOc1cc(COC(=O)CCCN2CCN(CCO)CC2)cc(OCCCCCCCCCCC)c1 ? 276

What do we get for CCCCCCCCCCCCCCOc1cc(COC(=O)CCCN2CCN(CCO)CC2)cc(OCCCCCCCCCCCCC)c1 ? 235

What do we get for CCCCCCCCCCCCCCCCCOc1cc(COC(=O)c2cc(OCCOCCOCCCC(=O)CCCN3CCCCC3)c(OCCOCCOCCOCc3ccccc3)c(OCCOCCOCCOC(=O)CCCN3CCCCC3)c2)cc(OCCCCCCCCCCC)c1 ? 75

What do we get for CCCCCCCCCCCCOc1cc(COC(=O)CCCN2CCN(CCO)CC2)cc(OCCCCCCCCCCCC)c1 ? 237

What do we get for CCCCCCCCCCCCCCCOc1cc(COC(=O)CCCN2CCN(C)CC2)cc(OCC(CC)CCCC)c1 (centres unmarked) ? 92

What do we get for CCCCCCCCCCCCCCCOc1cc(COC(=O)c2cc(OCCOCCOCCCC(=O)CCCN3CCCCC3)c(OCCOCCOCCOCc3ccccc3)c(OCCOCCOCCOC(=O)CCCN3CCCCC3)c2)cc(OCCCCCCCCCCC)c1 ? 68

----------
ASSAY_TEXT: DLS size of dendrimersomes assembled from glycerol-JDs in water at different concentrations
Assay type: physicochemical
TEST_SETTINGS: JD 0.25 mg·mL−1 in water
Field: PDI. Provide a value for each of the compounds that follow.
Form rule: numeric answer, no unit written next to it.

Requested field: PDI. Item: CCCCCCCCCCCCOc1cc(OCCCCCCCCCCCC)cc(C(=O)OCC(COC(=O)C(C)(COC(=O)c2cc(OCCOCCOCCOC)c(OCCOCCOCCOC)c(OCCOCCOCCOC)c2)COC(=O)c2cc(OCCOCCOCCOC)c(OCCOCCOCCOC)c(OCCOCCOCCOC)c2)OC(=O)c2cc(OCCCCCCCCCCCC)cc(OCCCCCCCCCCCC)c2)c1 (racemic) [Compound 1rac, (3,5)-12G1-GC-(rac)-BMPA-(3,4,5)-3EO-G1] 0.238

What do we get for CCCCCCCCCCCCOc1cc(OCCCCCCCCCCCC)cc(C(=O)OCC(C)(COC(=O)c2cc(OCCCCCCCCCCCC)cc(OCCCCCCCCCCCC)c2)C(=O)OC[C@@H](COC(=O)c2cc(OCCOCCOCCOC)c(OCCOCCOCCOC)c(OCCOCCOCCOC)c2)OC(=O)c2cc(OCCOCCOCCOC)c(OCCOCCOCCOC)c(OCCOCCOCCOC)c2)c1 [Compound 2R, (3,5)-12G1-BMPA-GC-(R)-(3,4,5)-3EO-G1] ? 0.186

What do we get for CCCCCCCCCCCCOc1cc(OCCCCCCCCCCCC)cc(C(=O)OCC(C)(COC(=O)c2cc(OCCCCCCCCCCCC)cc(OCCCCCCCCCCCC)c2)C(=O)OC[C@H](COC(=O)c2cc(OCCOCCOCCOC)c(OCCOCCOCCOC)c(OCCOCCOCCOC)c2)OC(=O)c2cc(OCCOCCOCCOC)c(OCCOCCOCCOC)c(OCCOCCOCCOC)c2)c1 [Compound 2S, (3,5)-12G1-BMPA-GC-(S)-(3,4,5)-3EO-G1] ? 0.223

What do we get for CCCCCCCCCCCCOc1cc(OCCCCCCCCCCCC)cc(C(=O)OCC(COC(=O)c2cc(OCCCCCCCCCCCC)cc(OCCCCCCCCCCCC)c2)OC(=O)C(C)(COC(=O)c2cc(OCCOCCOCCOC)c(OCCOCCOCCOC)c(OCCOCCOCCOC)c2)COC(=O)c2cc(OCCOCCOCCOC)c(OCCOCCOCCOC)c(OCCOCCOCCOC)c2)c1 [Compound 3] ? 0.153

What do we get for CCCCCCCCCCCCOc1cc(OCCCCCCCCCCCC)cc(C(=O)OC[C@@H](COC(=O)C(C)(COC(=O)c2cc(OCCOCCOCCOC)c(OCCOCCOCCOC)c(OCCOCCOCCOC)c2)COC(=O)c2cc(OCCOCCOCCOC)c(OCCOCCOCCOC)c(OCCOCCOCCOC)c2)OC(=O)c2cc(OCCCCCCCCCCCC)cc(OCCCCCCCCCCCC)c2)c1 [Compound 1S, (3,5)-12G1-GC-(S)-BMPA-(3,4,5)-3EO-G1] ? 0.203

What do we get for CCCCCCCCCCCCOc1cc(OCCCCCCCCCCCC)cc(C(=O)OCC(C)(COC(=O)c2cc(OCCCCCCCCCCCC)cc(OCCCCCCCCCCCC)c2)C(=O)OC(COC(=O)c2cc(OCCOCCOCCOC)c(OCCOCCOCCOC)c(OCCOCCOCCOC)c2)COC(=O)c2cc(OCCOCCOCCOC)c(OCCOCCOCCOC)c(OCCOCCOCCOC)c2)c1 [Compound 4] ? 0.180

What do we get for CCCCCCCCCCCCOc1cc(OCCCCCCCCCCCC)cc(C(=O)OC[C@H](COC(=O)C(C)(COC(=O)c2cc(OCCOCCOCCOC)c(OCCOCCOCCOC)c(OCCOCCOCCOC)c2)COC(=O)c2cc(OCCOCCOCCOC)c(OCCOCCOCCOC)c(OCCOCCOCCOC)c2)OC(=O)c2cc(OCCCCCCCCCCCC)cc(OCCCCCCCCCCCC)c2)c1 [Compound 1R, (3,5)-12G1-GC-(R)-BMPA-(3,4,5)-3EO-G1] ? 0.202
